test protocol: Phase 1 combination study: MK-2206 pharmacokinetics
Assay type: in vivo, human
cond: human, plasma, oral, first dose; arm 3 erlotinib 100 mg; MK-2206 135 mg QW; 6 patients; read-out: t 1/2, harmonic mean ± pseudo SD (converted)
endpoint label: half-life (h)

[
  {
    "structure smiles": "NC1(c2ccc(-c3nc4ccn5c(=O)[nH]nc5c4cc3-c3ccccc3)cc2)CCC1",
    "quantitative readout": 60.6
  }
]

====

test protocol: Phase 1 combination study: MK-2206 pharmacokinetics
Type: in vivo, human
cond: human, plasma, oral, first dose; arm 2 docetaxel 60 mg/m^2; MK-2206 200 mg Q3W; 4 patients; read-out: t 1/2, harmonic mean ± pseudo SD (converted)
endpoint label: half-life (h)

[
  {
    "compound": "NC1(c2ccc(-c3nc4ccn5c(=O)[nH]nc5c4cc3-c3ccccc3)cc2)CCC1 [MK-2206]",
    "endpoint label": "half-life",
    "unit of measurement": "h",
    "quantitative readout": 86.9
  }
]

Data origin: paper PMC3884022
